System: Winter Wheat variety 'Hereward'
test.name: Example B crop damage test, post-emergence, unsafened wheat
Format: in vivo
details: Rate 250 g/ha; post-emergence spray after 8 days cultivation; no safener; evaluated after 13 days
measured.quantity: Winter Wheat (Hereward) damage (100=total damage to plant; 0=no damage to plant)
No unit in the answer, please; the number alone is enough.

Name the recorded Winter Wheat (Hereward) damage (100=total damage to plant; 0=no damage to plant) for COc1ccc(CC2CC(=O)C(c3c(C)cc(C)cc3C)C2=O)cc1 (stereo not drawn) [Compound A24] .
40

Same question, Cc1cc(C)c(C2=C(OC(=O)C(C)(C)C)C/C(=C\C3CCCCC3)C2=O)c(C)c1 [Compound B1] this time
10

Similarly, Cc1cc(C)cc(CC2CC(=O)C(c3c(C)cc(C)cc3C)C2=O)c1 (stereo not drawn) [Compound A21] ?
20

Next: Cc1cccc(C)c1C1C(=O)CC(CC2CCCCC2)C1=O (stereo not drawn) [Compound A10]
10

Further, for Cc1cc(C)c(C2C(=O)C/C(=C\C3CCCC4CCCCC34)C2=O)c(C)c1 (stereo not drawn) [Compound A31] ?
20

Try this compound too: Cc1cc(C)c(C2C(=O)CC(Cc3ccc(S(C)(=O)=O)cc3)C2=O)c(C)c1 (stereo not drawn) [Compound A23]
50

Here is the next compound: Cc1cc(C)c(C2C(=O)CC(Cc3ccccc3F)C2=O)c(C)c1 (stereo not drawn) [Compound A14]
30

Now the compound Cc1cc(C)c(C2C(=O)C/C(=C\C3CCCCC3C)C2=O)c(C)c1 (stereo not drawn) [Compound A26]
40

Lookup Cc1cc(C)c(C2C(=O)CC(CC3CCCCCC3)C2=O)c(C)c1 (stereo not drawn) [Compound A35]
20

----------
Exercise: state measured Winter Wheat (Hereward) damage (100=total damage to plant; 0=no damage to plant) for each of the compounds provided.
Test system: Winter Wheat variety 'Hereward'
test.name: Example B crop damage test, post-emergence, unsafened wheat
Format: in vivo
details: Rate 250 g/ha; post-emergence spray after 8 days cultivation; no safener; evaluated after 13 days
Give a plain numeric answer without units written out.

Consider the compound Cc1cc(Br)cc(C)c1C1C(=O)CC(CC2CCCCC2)C1=O (centres unmarked) and give its measured Winter Wheat (Hereward) damage (100=total damage to plant; 0=no damage to plant).
0

# repeat for COC1CCC(CC2CC(=O)C(c3c(C)cc(C)cc3C)C2=O)CC1 (centres unmarked)
70

What do you have for Cc1cc(C)c(C2C(=O)CC(CC3CC3)C2=O)c(C)c1 (centres unmarked) ?
30

Further, for Cc1cc(C)c(C2=C(OC(=O)C(C)(C)C)C(CC3CCC(=O)CC3)CC2=O)c(C)c1 (centres unmarked) ?
40

Param item: Cc1cc(C)c(C2C(=O)CC(CC3CC(C)CCC3C)C2=O)c(C)c1 (centres unmarked)
10

----------
Tested on: Winter Wheat variety 'Hereward'
test.name: Example B crop damage test, post-emergence, unsafened wheat
Assay type: in vivo
details: Rate 250 g/ha; post-emergence spray after 8 days cultivation; no safener; evaluated after 13 days
Procedure: Seeds of the Winter Wheat variety ‘Hereward’ were sown in standard soil in pots. […] The test plants were then grown in a glasshouse under controlled conditions in a glasshouse (at 24/16° C., day/night; 14 hours light; 65% humidity) and watered twice daily. After 13 days for pre and post-emergence, the test was evaluated (100=total damage to plant; 0=no damage to plant).
Hi there, I'd appreciate the recorded Winter Wheat (Hereward) damage (100=total damage to plant; 0=no damage to plant) for every entry that follows.
The answer should be a number; do not append a unit.

Request - read-out Winter Wheat (Hereward) damage (100=total damage to plant; 0=no damage to plant) | tested on Winter Wheat variety 'Hereward' | compound Cc1cc(C)c(C2=C(OC(=O)C(C)(C)C)CC(CC3CCCCC3)C2=O)c(C)c1 (stereo not drawn)
70

C=C(C)C1CCC(/C=C2\CC(=O)C(c3c(C)cc(C)cc3C)C2=O)CC1 (stereo not drawn) , same question.
10

Check Cc1cc(C)c(C2C(=O)CC(Cc3cc(F)cc(F)c3)C2=O)c(C)c1 (stereo not drawn) too.
10

----------
Test system: Alopecurus myosuroides (ALOMY)
test.name: Example A glasshouse herbicide test, post-emergence, ALOMY
Assay type: in vivo
details: Alopecurus myosuroides, post-emergence, 312 h, Rate 250 g/ha, sprayed after 8 days cultivation, evaluated after 13 days, read-out: Post-Emergence Activity ALOMY (100=total damage to plant; 0=no damage to plant)
Label 1 (yes) when pest or weed control at 250 g/ha is at or above 20%; otherwise label 0 (no).

Entry C=C(C)C1CCC(/C=C2\CC(=O)C(c3c(C)cc(C)cc3C)C2=O)CC1 (centres unmarked) : is its pest or weed control at 250 g/ha no less than 20%?
1 (yes)

// repeat for Cc1cc(C)c(C2C(=O)CC(Cc3ccc(CS(=O)(=O)c4ccccc4)cc3)C2=O)c(C)c1 (centres unmarked) and report
0 (no)

Same lookup for Cc1cc(C)c(C2=C(OC(=O)C(C)(C)C)CC(Cc3ccccc3)C2=O)c(C)c1 (centres unmarked) , please.
1 (yes)

Thanks! And Cc1cc(Br)cc(C)c1C1C(=O)CC(CC2CCCCC2)C1=O (centres unmarked) ?
0 (no)

And then Cc1cc(C)cc(CC2CC(=O)C(c3c(C)cc(C)cc3C)C2=O)c1 (centres unmarked) , what is it?
1 (yes)

----------
Test system: Winter Wheat variety 'Hereward'
test.name: Example B crop damage test, post-emergence, unsafened wheat
Format: in vivo
details: Rate 250 g/ha; post-emergence spray after 8 days cultivation; no safener; evaluated after 13 days
Short version: Winter Wheat (Hereward) damage (100=total damage to plant; 0=no damage to plant) at least 40 is True, less is False.

Threshold query (Winter Wheat (Hereward) damage (100=total damage to plant; 0=no damage to plant) >= 40) on Cc1cc(Br)cc(C)c1C1C(=O)C/C(=C\C2CCCCC2)C1=O (stereo not drawn)
False

Cc1cc(C)c(C2C(=O)CC(CC3CCCC3)C2=O)c(C)c1 (stereo not drawn) ?
True

Note, next up: Cc1cc(C)c(C2C(=O)CC(CC3CCCC4CCCCC43)C2=O)c(C)c1 (stereo not drawn)
False

Input Cc1cc(C)c(C2C(=O)CC(CC3CCCCC3)C2=O)c(C)c1 (stereo not drawn)
True

And Cc1cc(C)c(C2C(=O)C/C(=C\C3CCCCC3)C2=O)c(C)c1 (stereo not drawn) ?
True

Next record, please: Cc1cc(C)c(C2C(=O)CC(CC3CC(C)CCC3C(C)C)C2=O)c(C)c1 (stereo not drawn)
False

Can you check Cc1cccc(CC2CC(=O)C(c3c(C)cc(C)cc3C)C2=O)c1 (stereo not drawn) next?
False

For Cc1cc(C)c(C2C(=O)C/C(=C\C3CCCC(C)C3)C2=O)c(C)c1 (stereo not drawn) then?
True

Please answer likewise for Cc1cc(C)c(C2C(=O)CC(CC3CCC(=NO)CC3)C2=O)c(C)c1 (stereo not drawn)
False

Do the same for Cc1cc(C)c(C2C(=O)CC(Cc3ccccc3)C2=O)c(C)c1 (stereo not drawn) please
False

What do we get for Cc1cc(C)c(C2C(=O)CC(CC3CCCC(C)C3)C2=O)c(C)c1 (stereo not drawn) ?
False

Another compound to look at: Cc1cc(C)c(C2C(=O)CC(CC3CCC3)C2=O)c(C)c1 (stereo not drawn)
False

// query: Cc1cc(C)c(C2C(=O)CC(Cc3ccccc3C)C2=O)c(C)c1 (stereo not drawn)
False

# repeat for Cc1cc(C)c(C2C(=O)CC(Cc3ccc(C#N)cc3)C2=O)c(C)c1 (stereo not drawn)
True

And for Cc1cc(C)c(C2C(=O)C/C(=C\C3CCCC3)C2=O)c(C)c1 (stereo not drawn) ?
True

----------
System: Lolium perenne (LOLPE)
test.name: Example A glasshouse herbicide test, pre-emergence, LOLPE
Assay type: in vivo
details: Lolium perenne, pre-emergence, 312 h, Rate 250 g/ha, sprayed after cultivation for one day, evaluated after 13 days, read-out: Pre-Emergence Activity LOLPE (100=total damage to plant; 0=no damage to plant)
Assignment: determine reported pest or weed control at 250 g/ha for the given molecules.
Give the number; % is assumed, so skip it.

Value lookup for pest or weed control at 250 g/ha; key = Cc1cc(C)c(C2=C(OC(=O)C(C)(C)C)CC(Cc3ccccc3C)C2=O)c(C)c1 (stereo not drawn)
100

And Cc1cc(C)c(C2=C(OC(=O)C(C)(C)C)CC(Cc3ccc(F)cc3)C2=O)c(C)c1 (stereo not drawn) ?
100

Record: Cc1cc(C)c(C2=C(OC(=O)C(C)(C)C)CC(Cc3cccc(Oc4ccccc4)c3)C2=O)c(C)c1 (stereo not drawn)
20

Same for Cc1cc(C)c(C2C(=O)C/C(=C\C3CCCC(C)C3)C2=O)c(C)c1 (stereo not drawn)
100

# repeat for Cc1cc(C)c(C2C(=O)CC(Cc3ccc(C#N)cc3)C2=O)c(C)c1 (stereo not drawn)
90

Also check Cc1cc(C)c(C2C(=O)C/C(=C\C3CCCCC3C)C2=O)c(C)c1 (stereo not drawn)
100

Again, but for Cc1cc(C)c(C2C(=O)CC(CC3CC3)C2=O)c(C)c1 (stereo not drawn)
100

Then what about the molecule Cc1cc(C)c(C2C(=O)CC(Cc3cc(F)cc(F)c3)C2=O)c(C)c1 (stereo not drawn) ?
100

Query Cc1cccc(CC2CC(OC(=O)C(C)(C)C)=C(c3c(C)cc(C)cc3C)C2=O)c1 (stereo not drawn) next
70

Same thing, different molecule: Cc1cc(C)c(C2=C(OC(=O)C(C)(C)C)CC(Cc3ccccc3)C2=O)c(C)c1 (stereo not drawn)
90

Try this molecule next: COC1CCC(CC2CC(=O)C(c3c(C)cc(C)cc3C)C2=O)CC1 (stereo not drawn)
100

// query: Cc1cc(Br)cc(C)c1C1C(=O)C/C(=C\C2CCCCC2)C1=O (stereo not drawn)
60

# repeat for Cc1cc(C)c(C2=C(OC(=O)C(C)(C)C)CC(CC3CCCCC3)C2=O)c(C)c1 (stereo not drawn)
100

Request: Cc1cc(C)c(C2=C(OC(=O)C(C)(C)C)C(CC3CCC(=NO)CC3)CC2=O)c(C)c1 (stereo not drawn)
90

Cool, now Cc1cc(C)c(C2C(=O)CC(CC3CCC3)C2=O)c(C)c1 (stereo not drawn)
100

Another molecule to look at: Cc1cc(C)c(C2C(=O)CC(CC3CCCC(C)C3)C2=O)c(C)c1 (stereo not drawn)
90

// next record Cc1cc(C)c(C2C(=O)CC(CC3CC(C)CCC3C)C2=O)c(C)c1 (stereo not drawn)
100

What do we get for Cc1cc(Br)cc(C)c1C1C(=O)CC(CC2CCCCC2)C1=O (stereo not drawn) ?
20
